Ki overview
target: rat A3 AR (Rattus norvegicus); assay: Radioligand binding, rat A3 AR (Table 1); details: species R (rat)
Sequence (P28647 whole entry): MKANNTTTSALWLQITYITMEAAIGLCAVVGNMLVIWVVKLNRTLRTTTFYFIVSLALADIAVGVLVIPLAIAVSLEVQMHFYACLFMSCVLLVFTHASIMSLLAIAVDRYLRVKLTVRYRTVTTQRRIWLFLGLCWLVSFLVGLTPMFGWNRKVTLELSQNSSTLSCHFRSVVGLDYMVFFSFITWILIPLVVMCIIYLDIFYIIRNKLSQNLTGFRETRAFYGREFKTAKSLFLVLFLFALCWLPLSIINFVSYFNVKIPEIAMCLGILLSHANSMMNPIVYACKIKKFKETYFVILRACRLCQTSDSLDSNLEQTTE
Use nM as the unit, but write only the number.

>>> endpointvalue("CNC(=O)[C@@]12C[C@@H]1[C@@H](n1cnc3c(NCc4cccc(I)c4)nc(Cl)nc31)[C@H](O)[C@@H]2O [Compound 15]")
1.1

Here's the next entry for you.
Value sought: Ki, system rat A3 AR (Rattus norvegicus), item CNC(=O)[C@@]12C[C@@H]1[C@@H](n1cnc3c(NCc4cccc(Br)c4)nc(Cl)nc31)[C@H](O)[C@@H]2O [Compound 14] . Result: 0.76

---

target: human A2A adenosine receptor (Homo sapiens, UniProt P29274); assay: Radioligand binding, human A2A AR (Table 1); conditions: read-out: A2A Ki; species H (human)
Sequence (P29274 whole entry): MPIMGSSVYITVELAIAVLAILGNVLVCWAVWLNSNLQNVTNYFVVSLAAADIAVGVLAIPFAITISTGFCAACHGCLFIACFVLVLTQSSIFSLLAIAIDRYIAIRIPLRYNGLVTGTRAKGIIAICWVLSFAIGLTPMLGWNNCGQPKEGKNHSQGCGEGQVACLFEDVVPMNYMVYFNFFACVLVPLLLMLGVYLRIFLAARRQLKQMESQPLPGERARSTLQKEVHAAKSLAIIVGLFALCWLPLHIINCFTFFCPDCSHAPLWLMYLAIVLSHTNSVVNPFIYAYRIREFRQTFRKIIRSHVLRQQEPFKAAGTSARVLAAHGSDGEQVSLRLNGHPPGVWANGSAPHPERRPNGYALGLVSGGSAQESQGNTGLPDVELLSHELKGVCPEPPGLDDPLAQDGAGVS
Ki overview
Use µM as the unit, but write only the number.

>>> endpointvalue("CNC(=O)[C@@]12C[C@@H]1[C@@H](n1cnc3c(NCc4cccc(I)c4)ncnc31)[C@H](O)[C@@H]2O")
6.2

Value sought: Ki, system human A2A adenosine receptor (Homo sapiens, UniProt P29274), item "CNC(=O)[C@@]12C[C@@H]1[C@@H](n1cnc3c(NCc4cccc(I)c4)nc(Cl)nc31)[C@H](O)[C@@H]2O" . Result: 0.784

Just for reference, patent US8916570B2 is where these values come from.
